tested on: Pichia kudriavzevii (Candida krusei); experiment: Antifungal activity against fluconazole-resistant Candida krusei CAKR7 assessed as reduction in microbial growth after 24 hrs by resazurin staining based spectrofluorometric method; conditions: CAKR7, 24 h
List of MIC values.
Numbers only; they are read as µg/mL.

INSERT INTO results (record_smiles, recorded_metric, recorded_result) VALUES
  ('C[C@@H](c1ncncc1F)[C@](O)(Cn1cncn1)c1ccc(F)cc1F', 'MIC', 0.817),
  ('C[C@@H](n1ncc2cc(-c3ccc(C#N)cc3)cn2c1=O)[C@](O)(Cn1cncn1)c1ccc(F)cc1F', 'MIC', 0.058),
  ('COc1ccc(-c2cc3cnn([C@H](C)[C@](O)(Cn4cncn4)c4ccc(F)cc4F)c(=O)n3c2)cc1', 'MIC', 0.062),
  ('C[C@@H](n1ncc2cc(Br)cn2c1=O)[C@](O)(Cn1cncn1)c1ccc(F)cc1F', 'MIC', 0.251),
  ('C[C@@H](n1ncc2cc(-c3ccccc3)cn2c1=O)[C@](O)(Cn1cncn1)c1ccc(F)cc1F', 'MIC', 0.013),
  ('C[C@@H](n1ncc2cccn2c1=O)[C@](O)(Cn1cncn1)c1ccc(F)cc1F', 'MIC', 0.625);

Kindly note: Pichia kudriavzevii (Candida krusei), C[C@@H](n1ncc2cc(-c3ccc([N+](=O)[O-])cc3)cn2c1=O)[C@](O)(Cn1cncn1)c1ccc(F)cc1F , MIC value reported: 0.066
